Entry source: the supplement of paper PMC9170038

Assign apparent KD of K4 kissing-loop reporter to each entry below.
- Tested on: K4 kissing-loop RNA reporter;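 note: bound reporter read as fluorescence of individual clusters on recovered sequencing chips by microscopy, with normalized cluster intensities fitted with a binding model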
- assay-text: apparent KD of K4 kissing-loop reporter; higher = weaker reporter binding
- test-settings: Eterna round: R107; input ligand: tryptophan 2.4 mM
Answers are plain numbers, in nM.

Worked set:
[
  {
    "seq-string": "CGCCAGUGAUGUUGGUGCAGCUACCGGGAAGGAGCGCCCAUAAGGGCAGGUAGGUCGCCCGGGCAGUGAUGUUGCCUCAUGCCGC [Exclusion Arginine A GF 22]",
    "unit-of-measurement": "nM",
    "apparent KD of K4 kissing-loop reporter": 238
  },
  {
    "seq-string": "UGAUACCAGACGGCCGCCACUGCACCAGUCAAUGACUGAGUGCGGUAGUGCUCAGUGAUGUUGAGUAGGACCGGGUCUGGUAUCU [Mod of Eli's TrypBX 8 v3]",
    "unit-of-measurement": "nM",
    "apparent KD of K4 kissing-loop reporter": 130
  }
]

Now turn to the next sequence.
IN: # return recorded apparent KD of K4 kissing-loop reporter for entry CGCAAGCAGCCAGUGAUGUUGGCCGCCUUGCGAGGACCGGUACGGCCGCCACUCGAAGGCGGCUACUAGUAAACCGCCUAACGGA [KL-XTryp-A17]
OUT: 184

* * *

- Test system: MS2 coat protein
- assay-text: apparent KD of MS2 coat protein; designed switch direction (-1 OFF switch, 1 ON switch): -1; higher = weaker reporter binding
- test-settings: Eterna round: R95; input ligand: FMN 200 uM
parameter-measured: apparent KD of MS2 coat protein (nM)
Give bare numbers, in nM.

Worked set:
[
  {
    "seq-string": "CUGAGGUAGCGGUCCUAUGACAUGAGGAUCACCCAUGUACCUUGCUUUGAGCUAUUUGCUCGUCUUAUGAUUCUCGG [Mat - Sensor v3 - turn-off var 1 - JL Mod - D40] (puzzle: Sensor v3, turn-off variant 1)",
    "parameter-measured": "apparent KD of MS2 coat protein",
    "value-measured": 457
  },
  {
    "seq-string": "UGUUGUUGAUAGGAUAUACUUGUAGGAGUAGGAGUAGAAGGAUCUACAUGAGGAUCACCCAUGUAGGAGUGAGA [JR_E6_Sub003] (puzzle: Exclusion 6)",
    "parameter-measured": "apparent KD of MS2 coat protein",
    "value-measured": 18.2
  },
  {
    "seq-string": "AAGAAACAUGAGGAUCACCCAUGUGAGGAUAUAGAAAAGAAAGAAAGAAAGAAAGAAACUAGAAGGCACAAAGA [It's All Mine] (puzzle: Exclusion 1)",
    "parameter-measured": "apparent KD of MS2 coat protein",
    "value-measured": 24.6
  },
  {
    "seq-string": "GAAGAAGAGAGAAUAGAAAACAUGAGGAUCACCCAUGUGAGAAGAUGAGGGUGUAGCAGGCUUUUUGCUCGUCUUAU (puzzle: Sensor v3, turn-off variant 1)",
    "parameter-measured": "apparent KD of MS2 coat protein",
    "value-measured": 32.5
  }
]

Now turn to the next sequence.
IN: GET apparent KD of MS2 coat protein | system: MS2 coat protein | item: CCGAGGUAGCGGUCCUAUGACAUGAGGAUCACCCAUGUACCUCGCUACGAGCUUUUUGCUCAUCUUAUAAUUCUCGG [Atriat] (puzzle: Sensor v3, turn-off variant 1)
OUT: 20.9

* * *

- System: MS2 coat protein
- assay-text: apparent KD of MS2 coat protein; higher = weaker reporter binding
- test-settings: Eterna round: R107; input ligand: arginine 13.2 mM
Use criterion met when the recorded apparent KD of MS2 coat protein is no lower than 0.02 µM; use criterion not met when it is lower.

IN: Hi team, for CGGUUUGUGAUGGAUACCAGCAGAGAAAAUGUUUAUCCUAACAUGAGGAUCACCCAUGUAUGCCCUUGGCAGCUGUUGUGGGCUG [8.V] , is the recorded apparent KD of MS2 coat protein at or above 0.02 µM?
OUT: criterion met

* * *

- Test system: MS2 coat protein
- assay-text: apparent KD of MS2 coat protein; designed switch direction (-1 OFF switch, 1 ON switch): -1; higher = weaker reporter binding
- test-settings: Eterna round: R95; input ligand: none
parameter-measured: apparent KD of MS2 coat protein (nM)
Answers are plain numbers, in nM.

Worked set:
[
  {
    "seq-string": "UGAAGUAGAAACCGAUCCUACAUGAGGAUCACCCAUGUAGCAAGACGUGCACGCGAAGCUCGUCAGACUACCAGAAG [salish99_TOv1_r3_002] (puzzle: Sensor v3, turn-off variant 1)",
    "value-measured": 366
  },
  {
    "seq-string": "AAAACUAACACGAAAGUGUUAGUAAAAUAAGCUUGUGGUACAUGAGGAUCACCCAUGUCCUCAUAAGCUCGUCUUAU [Mat - Sensor v3 - Turn-off var 2 - D44] (puzzle: Sensor v3, turn-off variant 2)",
    "value-measured": 24.5
  },
  {
    "seq-string": "UAUUAGCAAGUAAGAUCCCACAUGAGGAUCACCCAUGUGCUCGUCUUAUAAGGUACUGUGACGAAAGUCACGGUACC [Sensor 3, v1 - 88] (puzzle: Sensor v3, turn-off variant 1)",
    "value-measured": 16.5
  }
]

Below are 2 sequences. Give each one its apparent KD of MS2 coat protein.
1. AAGAAACAUGAGGAUCACCCAUGUGAGGAUAUGAGAAAGAAAAGAAAAGAAAGAAGACUCAGAAGGCACAAAGG [salish99-ex1_r3_040] (puzzle: Exclusion 1)
2. AGUACUAACACGCCAGUGUUAGUACAAUAAGCUUGUGAAACAUGAGGAUCACCCAUGUCCUCAUAAGCUCGUCUUAU [salish99_TOv2_r3_028] (puzzle: Sensor v3, turn-off variant 2)

OUT:
120
15.1

Below are 4 sequences. Give each one its apparent KD of MS2 coat protein.
1. ACCAUGUCUGAGGAUAUGCAAGCGUACCACGCGGUAGAAGGCAGCACAUGAGGAUCACCCAUGUGGGUAUGCUA [Inanenqu] (puzzle: Exclusion 6)
2. UUUAAUUUUUUUUUUUUACAAGCUUUUUGCUCGUCUUAUACAUGAGGAUCACCCAUGUGGGUGAAAGAUAAAUUAUC [JMF 5] (puzzle: Sensor v3, turn-off variant 2)
3. UGAAAACAUGAGGAUCACCCAUGUAAGGAUAUGCAAAAGGAUAUAGAAGGAAAAAAAAGCAGAAGGUACAAAGG [salish99-ex1_r3_095] (puzzle: Exclusion 1)
4. AGUAACUAUCACGAAAGUGAUAGUUACAAAACAAGUGAAACAUGAGGAUCACCCAUGUCCUCACUUGCUCGUCUUAU [Sensor 3 - 5] (puzzle: Sensor v3, turn-off variant 2)

OUT:
1: 14.8; 2: 37.6; 3: 60.3; 4: 13.4

IN: GET apparent KD of MS2 coat protein | system: MS2 coat protein | item: GUGGUAGGUUUUUCGAGUAACAUGAGGAUCACCCAUGUAUUAGUUGGAUGUAUCAAGCUUUUUGCUCGACUUAUAAA [JR_SV3TOV1_Sub043] (puzzle: Sensor v3, turn-off variant 1)
OUT: 288

* * *

Assign apparent KD of MS2 coat protein to each entry below.
- Test system: MS2 coat protein
- assay-text: apparent KD of MS2 coat protein; designed switch direction (-1 OFF switch, 1 ON switch): -1; higher = weaker reporter binding
- test-settings: input ligand: FMN 200 uM
Numbers only, in nM.

Worked set:
[
  {
    "seq-string": "CAUUGUGUUGAGGAUAUGCGCCGGCUCGCUGGCGCAGAAGGCGGCACAUGAGGAUCACCCAUGUCAGUUCGCGA [salish99_ex6_r004_416] (Eterna round: R97, puzzle: Exclusion 6)",
    "apparent KD of MS2 coat protein (nM)": 452
  },
  {
    "seq-string": "UUGUUCCGUGUAGGAUAUUGGCCUCCCUCGGGCCGAGAAGGACAUGAGGAUCACCCAUGUAUGCUAUUAUCGCGCGUGGCGCAC [Design 94] (Eterna round: R96, puzzle: Exclusion NG 1)",
    "apparent KD of MS2 coat protein (nM)": 330
  },
  {
    "seq-string": "UUGACGGCAGGAUAUACAUGAGGAUCACCCAUGUAAAUUUUUCGUUUAACUUGAAUGUGUAGAAGGGCCAACUU [Ex3 #73] (Eterna round: R97, puzzle: Exclusion 3)",
    "apparent KD of MS2 coat protein (nM)": 18.6
  }
]

Below are 2 sequences. Give each one its apparent KD of MS2 coat protein.
1. AAACGCAGAGGAUAUACAUAUUUUCCUCAUGUGCAGCUUACACAUGAGGAUCACCCAUGUAGAAGGCUGGAAAA [EX2 A.29] (Eterna round: R97, puzzle: Exclusion 2)
2. AAUAAUGAGUAGGAUAUCACUAGCGAUAGCUAGUGAGAAGGACUCACAUGAGGAUCACCCAUGUGUUCCAAUAA [Mod3 Ex6/6-A4 by Brourd] (Eterna round: R97, puzzle: Exclusion 6)

OUT:
1. 300
2. 195
